- Target Or System: Phosphatidylserine lipase ABHD16A (Mus musculus)
- Assay Info: Inhibition of azido-fluorophosphonate probe binding to mouse ABHD16A expressed in HEK293T cells at 200 uM incubated for 1 hr followed by azido-fluorophosphonate addition and measured after 1 hr by fluorescent Western blotting analysis relative to control
- Format: cell-based
- Stated Conditions: time 2.0 hrs
Assay Endpoint: inhibition (%)
Give just the number in %; leave the unit off.

Before answering, review these 4 worked examples.
COC(=O)[C@]1(C)CCC[C@]2(C)c3cc(-c4csc(C)n4)c(C(C)C)cc3C(=O)C[C@@H]12 : 73.2
CC(=O)c1nc(-c2cc3c(cc2C(C)C)CC[C@H]2[C@](C)(C(N)=O)CCC[C@]32C)cs1 : 83.5
COC(=O)[C@]1(C)CCC[C@]2(C)c3cc(-c4csc(COC(C)=O)n4)c(C(C)C)cc3CC[C@@H]12 : 62.9
COC(=O)[C@]1(C)CCC[C@]2(C)c3cc(-c4csc([C@H](C)O)n4)c(C(C)C)cc3CC[C@@H]12 : 66.4

Consider the compound "CC(C)c1cc2c(cc1-c1csc([C@H](C)O)n1)[C@@]1(C)CCC[C@@](C)(C(N)=O)[C@@H]1CC2" and give its recorded inhibition.
59.8
